B1: human DAXX four-helix bundle domain (4HB, residues 50–144) [human] / human ATRX DAXX-binding motif (DBM) peptide, wild type [human] (parent complex)
chain 1: SSSSGGKKCYKLENEKLFEEFLELCKMQTADHPEVVPFLYNRQQRAHSLFLASAEFCNILSRVLSRARSRPAKLYVYINELCTVLKAHSAKKKLN
chain 2: NDPENRIAKKMLLEEIKANLSSDE

variants of: B1; experiment: ITC
Recorded Endpoint: Kd (µM)

Mutation Name	Measured Number
chain 1 F38A	7.5

Taken from paper PMC5662737.
